Conditions: in toluene, 303.35 K
property-measured: solubility (mole fraction)

                        smiles_string  observed_measurement
0  CCOC(=O)C1=C(C)NC(C)=C(C(=O)OCC)C1               0.00114

----------
Conditions: in isobutanol, 303.15 K
property-measured: solubility (mole fraction)

>>> df
                        smiles_string           property_measured  observed_measurement
0  CCOC(=O)C1=C(C)NC(C)=C(C(=O)OCC)C1  solubility (mole fraction)               0.00517

----------
Conditions: in 2-pentanone, 272.15 K
property-measured: solubility (mole fraction)

>>> print(df.to_string())
                        smiles_string           property_measured  observed_measurement
0  CCOC(=O)C1=C(C)NC(C)=C(C(=O)OCC)C1  solubility (mole fraction)               0.00169

----------
Details: in ethyl acetate, 278.15 K
property-measured: solubility (mole fraction)

>>> print(df.to_string())
                        smiles_string  observed_measurement
0  CCOC(=O)C1=C(C)NC(C)=C(C(=O)OCC)C1               0.00195

----------
Settings: in isopentanol, 318.15 K
property-measured: solubility (mole fraction)

In [3]: df
Out[3]:
                        smiles_string           property_measured  observed_measurement
0  CCOC(=O)C1=C(C)NC(C)=C(C(=O)OCC)C1  solubility (mole fraction)               0.00989
